Where do the numbers come from? From patent US20180355059A1.

biological target: T1, recombinant human PCSK9-His protein (Immunogen A) (human, UniProt Q8NBP7 31-692, limits assumed, biotinylated in the ELISA assays); assay: ELISA of PCSK9 binding to LDLR ECD; antibody 40 nM
T1 construct: also called hPCSK9-His; His-tagged hPCSK9; not shown: His tag
measurement-label: OD450 nm (OD450 nm)
Provide the reading as a plain figure in OD450 nm.

Which value of OD450 nm has been reported for 76A1B11, fully human anti-PCSK9 antibody (antibody, human IgG1, V domains shown) VH: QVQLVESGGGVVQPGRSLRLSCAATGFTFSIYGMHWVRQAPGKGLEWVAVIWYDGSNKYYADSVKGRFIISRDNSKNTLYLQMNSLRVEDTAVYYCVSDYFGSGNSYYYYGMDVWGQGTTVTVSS VL: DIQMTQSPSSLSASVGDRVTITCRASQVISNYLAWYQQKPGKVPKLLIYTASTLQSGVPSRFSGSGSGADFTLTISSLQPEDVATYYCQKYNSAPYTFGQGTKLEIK in the records?
1.35
